Test system: SARS-CoV-2 (hCoV-19/Japan/TY/WK 521/2020 strain)
Assay: microbe, parasite or virus in culture
Format: cell-based
Conditions: HEK293T/ACE2-TMPRSS2 cells
Please go through the items and note down their SARS-CoV-2 SI (Selectivity Index), 293T-AT.
Lab note: write the figure by itself, no unit.

Log: SARS-CoV-2 (hCoV-19/Japan/TY/WK 521/2020 strain), molecule Cl.Nc1ncnn2c([C@@H]3N[C@H](CO)[C@@H](O)[C@H]3O)cc(-c3cc(O)ccn3)c12 [Compound I-087] , SARS-CoV-2 SI (Selectivity Index), 293T-AT = 3.97

Log: SARS-CoV-2 (hCoV-19/Japan/TY/WK 521/2020 strain), molecule CCn1ccc(-c2cc([C@@H]3N[C@H](CO)[C@@H](O)[C@H]3O)n3ncnc(N)c23)n1.Cl [Compound I-081] , SARS-CoV-2 SI (Selectivity Index), 293T-AT = 222

Log: SARS-CoV-2 (hCoV-19/Japan/TY/WK 521/2020 strain), molecule Cc1cc(-c2cc([C@@H]3N[C@H](CO)[C@@H](O)[C@H]3O)n3nc(F)nc(N)c23)[nH]n1.Cl [Compound I-084] , SARS-CoV-2 SI (Selectivity Index), 293T-AT = 48.2

* * *

Please go through the items and note down their CC50 at 3 days.
Assay: Cytotoxic activity evaluation, Vero E6/TMPRSS2 cells
Assay type: cell-based
Conditions: African green monkey, no virus

In plain terms, Cl.Nc1ncnn2c([C@@H]3N[C@H](CO)[C@@H](O)[C@H]3O)cc(-c3nc[nH]n3)c12 has a documented CC50 at 3 days of 17 µM

In plain terms, C#CCNC(=O)c1cc([C@@H]2N[C@H](CO)[C@@H](O)[C@H]2O)n2ncnc(N)c12 has a documented CC50 at 3 days of > 500 µM

In plain terms, Cl.Nc1ncnn2c([C@@H]3N[C@H](CO)[C@@H](O)[C@H]3O)cc(-c3nc4ccccc4s3)c12 has a documented CC50 at 3 days of 96 µM

In plain terms, N#C[C@@]1(c2ccn3c(N)ncnc23)O[C@H](CO)[C@@H](O)[C@H]1O has a documented CC50 at 3 days of 485 µM

In plain terms, N#C[C@@]1(c2cnc3c(N)ncnn23)O[C@H](CO)[C@@H](O)C1O (stereo partly drawn) has a documented CC50 at 3 days of > 500 µM

In plain terms, Cl.N/C(=N\O)c1cc([C@@H]2N[C@H](CO)[C@@H](O)[C@H]2O)n2nc(F)nc(N)c12 has a documented CC50 at 3 days of > 500 µM

In plain terms, Cl.Cn1cc(-c2cc([C@@H]3N[C@H](CO)[C@@H](O)[C@H]3O)n3ncnc(N)c23)nn1 has a documented CC50 at 3 days of > 500 µM

In plain terms, Cl.Nc1ncnn2c([C@@H]3N[C@H](CO)[C@@H](O)[C@H]3O)cc(-c3n[nH]c4ccccc34)c12 has a documented CC50 at 3 days of 397 µM

In plain terms, Nc1ncnn2c([C@@H]3N[C@H](CO)[C@@H](O)[C@H]3O)cc(-c3c[nH]nn3)c12 has a documented CC50 at 3 days of 315 µM

In plain terms, Cl.Nc1ncnn2c([C@@H]3N[C@H](CO)[C@@H](O)[C@H]3O)cc(-c3ccn[nH]3)c12 has a documented CC50 at 3 days of 316 µM

In plain terms, NC(=O)c1cc([C@@H]2N[C@H](CO)[C@@H](O)[C@H]2O)n2ncnc(N)c12 has a documented CC50 at 3 days of 448 µM

In plain terms, Cl.NC(=O)c1cc([C@@H]2N[C@H](CO)[C@@H](O)[C@H]2O)n2nc(F)nc(N)c12 has a documented CC50 at 3 days of 56.8 µM

In plain terms, Cl.Nc1ncnn2c([C@@H]3N[C@H](CO)[C@@H](O)[C@H]3O)cc(-c3ccc(F)cn3)c12 has a documented CC50 at 3 days of > 500 µM

In plain terms, Cc1cc(-c2cc([C@@H]3N[C@H](CO)[C@@H](O)[C@H]3O)n3ncnc(N)c23)[nH]n1.Cl has a documented CC50 at 3 days of > 500 µM

In plain terms, Nc1ncnn2c([C@@H]3N[C@H](CO)[C@@H](O)[C@H]3O)cc(-c3ncc[nH]3)c12 has a documented CC50 at 3 days of > 500 µM

* * *

Tested on: SARS-CoV-2 (hCoV-19/Japan/TY/WK 521/2020 strain)
Test: microbe, parasite or virus in culture
Assay type: cell-based
Details: HEK293T/ACE2-TMPRSS2 cells
property.label: SARS-CoV-2 SI (Selectivity Index), 293T-AT
Lab note: write the figure by itself, no unit.

In plain terms, Cl.Nc1nc(F)nn2c([C@@H]3N[C@H](CO)[C@@H](O)[C@H]3O)cc(-c3c[nH]nn3)c12 [Compound I-082] has a documented SARS-CoV-2 SI (Selectivity Index), 293T-AT of 37.8

In plain terms, NC(=O)c1cc([C@@H]2N[C@H](CO)[C@@H](O)[C@H]2O)n2ncnc(N)c12 [Compound I-010] has a documented SARS-CoV-2 SI (Selectivity Index), 293T-AT of 1050

In plain terms, Cl.Nc1ncnc2c([C@@H]3N[C@H](CO)[C@@H](O)[C@H]3O)cc(-c3c[nH]nn3)n12 [Compound I-083] has a documented SARS-CoV-2 SI (Selectivity Index), 293T-AT of 8.71

In plain terms, Cn1ncc(-c2cc([C@@H]3N[C@H](CO)[C@@H](O)[C@H]3O)n3ncnc(N)c23)n1 [Compound I-086] has a documented SARS-CoV-2 SI (Selectivity Index), 293T-AT of 19.4

* * *

Tested on: Vero E6/TMPRSS2 cells
Experiment: Cytotoxic activity evaluation, Vero E6/TMPRSS2 cells
Assay type: cell-based
Conditions: read-out: SARS-CoV-2 test CC50 (50% cell proliferation inhibitory concentration), no virus, 3 days
property.label: CC50 (µM)
Give just the numeric value; µM need not be written.

In plain terms, CC(C)(C)OC(=O)N1[C@H](CO)[C@@H](O)[C@@H](O)[C@@H]1c1cc(N)c2c(N)ncnn12 has a documented CC50 of 189

In plain terms, Nc1ncnn2c([C@@H]3N[C@H](CO)[C@@H](O)[C@H]3O)cc(O)c12 has a documented CC50 of 129

* * *

Test system: SARS-CoV-2 (hCoV-19/Japan/TY/WK 521/2020 strain)
Test: microbe, parasite or virus in culture
Type: cell-based
Conditions: Severe acute respiratory syndrome coronavirus 2, HEK-293T, 72 h, read-out: SARS-CoV-2 EC50 (50% CPE inhibitory concentration), 293T-AT; HEK293T/ACE2-TMPRSS2 cells, 3 days culture
Assign labels as follows, please: t for EC50 below 30 µM; f for EC50 equal to or exceeding 30 µM.

Is 30 µM strictly greater than the compound's reported EC50? compound: Cc1nc(N)c2c(C(N)=O)cc([C@@H]3N[C@H](CO)[C@@H](O)[C@H]3O)n2n1.Cl
f

Is 30 µM strictly greater than the compound's reported EC50? compound: Cc1c[nH]c(-c2cc([C@@H]3N[C@H](CO)[C@@H](O)[C@H]3O)n3ncnc(N)c23)n1
f

Is 30 µM strictly greater than the compound's reported EC50? compound: CCn1ccc(-c2cc([C@@H]3N[C@H](CO)[C@@H](O)[C@H]3O)n3ncnc(N)c23)n1.Cl
t

Is 30 µM strictly greater than the compound's reported EC50? compound: Cn1ncc(-c2cc([C@@H]3N[C@H](CO)[C@@H](O)[C@H]3O)n3ncnc(N)c23)n1
t

Is 30 µM strictly greater than the compound's reported EC50? compound: Cl.Nc1ncnn2c([C@@H]3N[C@H](CO)[C@@H](O)[C@H]3O)cc(-c3cc(O)ccn3)c12
t

* * *

Assay: Cytotoxic activity evaluation, HEK293T/ACE2-TMPRSS2 cells
Assay type: cell-based
Details: human, no virus
Please go through the items and note down their CC50 at 3 days.
Give just the numeric value; µM need not be written.

In plain terms, Cl.Nc1ncnc2c([C@@H]3N[C@H](CO)[C@@H](O)[C@H]3O)cc(-c3c[nH]nn3)n12 has a documented CC50 at 3 days of 45.3

In plain terms, Cl.[2H]C([2H])(O)[C@H]1N[C@@H](c2cc(C(N)=O)c3c(N)ncnn23)[C@H](O)[C@@H]1O has a documented CC50 at 3 days of 62.9

In plain terms, Cl.Nc1ncnn2c([C@@H]3N[C@H](CO)[C@@H](O)[C@H]3O)cc(-c3cc(O)ccn3)c12 has a documented CC50 at 3 days of 75

In plain terms, CCn1ccc(-c2cc([C@@H]3N[C@H](CO)[C@@H](O)[C@H]3O)n3ncnc(N)c23)n1.Cl has a documented CC50 at 3 days of 306

In plain terms, Cl.Nc1nc(F)nn2c([C@@H]3N[C@H](CO)[C@@H](O)[C@H]3O)cc(-c3c[nH]nn3)c12 has a documented CC50 at 3 days of 150

In plain terms, Cc1cc(-c2cc([C@@H]3N[C@H](CO)[C@@H](O)[C@H]3O)n3nc(F)nc(N)c23)[nH]n1.Cl has a documented CC50 at 3 days of 257

In plain terms, Cn1ncc(-c2cc([C@@H]3N[C@H](CO)[C@@H](O)[C@H]3O)n3ncnc(N)c23)n1 has a documented CC50 at 3 days of 225
